Give abundance fitness for every item shown.
B1: Poly(rC)-binding protein 1, residues 278 to 350; numbered along this chain, Q15365 (parent)
chain: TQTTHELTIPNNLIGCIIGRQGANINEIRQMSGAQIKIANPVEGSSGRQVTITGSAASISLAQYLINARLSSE

- Variants of: B1
- method: abundance fitness (aPCA) (normalised: wild type 0, dead -1); higher = more abundant; growth selection in yeast, the domain comes from the species named
- condition_notes: Homo sapiens
// no unit, no text: just the number

# variant T53F ; its abundance fitness = -0.321

# variant T4Q ; its abundance fitness = -0.087

# variant Q21Y ; its abundance fitness = -0.217

# variant E27C ; its abundance fitness = -0.169
